Source listed as PubChem BioAssay.

Target System: Steroidogenic factor 1 (Homo sapiens)
Procedure Summary: SF1 (NR5A1) inverse agonists, counter-screen for LRH-1 inverse agonist project, cell-based, luminescence, high throughput (AID 651614);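 further: cells cotransfected with StAR promoter reporter and SF1 expression vector; 0% = vehicle on cells with receptor and 100% = vehicle on cells lacking receptor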
Condition Label: cell-based SF1 luciferase reporter, at 3.6 µM, hits give high values
Could you please classify the records by inhibition using these ranges: bin 0 = under 40%, bin 1 = from 40% up to 60%, bin 2 = 60% and over

Query :: Which inhibition category applies to `CCNC(=S)N1CCN(c2nc(CC)nc3sc4c(c23)CCCC4)CC1` here?
Result :: bin 0

Query :: Category of `COc1ccc(CCNC(=O)CSc2nc3[nH]ncc3c(=O)n2-c2ccccc2Br)cc1OC` , please.
Result :: bin 1

Query :: # classify by inhibition band: `CCOC(=O)c1cccc(C2=CC(=O)CC(C)(C)C2)c1`
Result :: bin 1

Field: next compound
Query :: Form field 'band' for `CC(C)(C)C(=O)N1CCN(c2ccc(NC(=O)c3ccc([N+](=O)[O-])o3)cc2)CC1`
Result :: bin 2

###

Test system: transactivating tegument protein VP16 (Human herpesvirus 1), Gal4-VP16 luciferase reporter
Procedure Summary: VP16 transactivation inhibitors, counter-screen for SRC3 inhibitor project, cell-based, luminescence, high throughput (AID 588794)
Condition Label: mammalian cells, VP16-driven luciferase reporter luminescence; at 3.6 µM; hits give high values
This listing pairs molecules with measured inhibition.
Report the value in % with no unit label.

Query :: Given `O=[N+]([O-])c1ccc(Sc2cccc[n+]2[O-])c2nonc12` , respond with its inhibition.
Result :: 95.4

Query :: Note inhibition for the molecule shown: `Cc1cc(C)n(CCC(=O)N/N=C/c2ccccc2O)n1`
Result :: 4.14

Query :: Please look at this molecule and report its inhibition: `COc1ccc(OCc2nn3c(-c4ccco4)nnc3s2)cc1`
Result :: -4.08

Query :: Identify measured inhibition associated with `CCN(CC)CCCNc1ccc2ncn3c4ccc(O)cc4c(=O)c1c23`
Result :: 51.3

Query :: Read off the recorded inhibition for COCC(=O)OC1CCn2c1nc1c2C(=O)C(C)=C(NC(C)=O)C1=O (stereo not given)
Result :: 86.7

Query :: For the molecule `COc1cccc(C(=O)CC(=O)C(=O)Nc2cccc([N+](=O)[O-])c2C)c1` , report inhibition.
Result :: -1.84

Query :: Report inhibition, nothing else, for this molecule: `Cc1ccc(CNC(=O)c2ccc3c(=O)c(O)c(-c4ccc(C)cc4)[nH]c3c2)cc1`
Result :: 8.89

Query :: Answer with reported inhibition of `CN(C)S(=O)(=O)c1ccc(-c2csc(N/N=C/c3ccco3)n2)cc1`
Result :: 16.7

Query :: Assign inhibition to the following record: `C=CCc1cc(C(=O)N2CCCCC2)ccc1O`
Result :: 19.9

Query :: Report measured inhibition; entry is `O=C(C1CCC1)N1CCN(c2ccnc3cc(Cl)ccc23)CC1`
Result :: 6.97

Query :: Given `CCc1ccc(C(=O)COC(=O)c2cncc(Br)c2)cc1` , respond with its inhibition.
Result :: 7.77

Query :: Output inhibition of OC1c2cc(Br)ccc2N=C2CCCN21 (stereo not given)
Result :: 37.3

###

Target System: Nuclear receptor coactivator 2 (Homo sapiens) (UniProt Q15596)
Sequence (Q15596 whole entry, looked up): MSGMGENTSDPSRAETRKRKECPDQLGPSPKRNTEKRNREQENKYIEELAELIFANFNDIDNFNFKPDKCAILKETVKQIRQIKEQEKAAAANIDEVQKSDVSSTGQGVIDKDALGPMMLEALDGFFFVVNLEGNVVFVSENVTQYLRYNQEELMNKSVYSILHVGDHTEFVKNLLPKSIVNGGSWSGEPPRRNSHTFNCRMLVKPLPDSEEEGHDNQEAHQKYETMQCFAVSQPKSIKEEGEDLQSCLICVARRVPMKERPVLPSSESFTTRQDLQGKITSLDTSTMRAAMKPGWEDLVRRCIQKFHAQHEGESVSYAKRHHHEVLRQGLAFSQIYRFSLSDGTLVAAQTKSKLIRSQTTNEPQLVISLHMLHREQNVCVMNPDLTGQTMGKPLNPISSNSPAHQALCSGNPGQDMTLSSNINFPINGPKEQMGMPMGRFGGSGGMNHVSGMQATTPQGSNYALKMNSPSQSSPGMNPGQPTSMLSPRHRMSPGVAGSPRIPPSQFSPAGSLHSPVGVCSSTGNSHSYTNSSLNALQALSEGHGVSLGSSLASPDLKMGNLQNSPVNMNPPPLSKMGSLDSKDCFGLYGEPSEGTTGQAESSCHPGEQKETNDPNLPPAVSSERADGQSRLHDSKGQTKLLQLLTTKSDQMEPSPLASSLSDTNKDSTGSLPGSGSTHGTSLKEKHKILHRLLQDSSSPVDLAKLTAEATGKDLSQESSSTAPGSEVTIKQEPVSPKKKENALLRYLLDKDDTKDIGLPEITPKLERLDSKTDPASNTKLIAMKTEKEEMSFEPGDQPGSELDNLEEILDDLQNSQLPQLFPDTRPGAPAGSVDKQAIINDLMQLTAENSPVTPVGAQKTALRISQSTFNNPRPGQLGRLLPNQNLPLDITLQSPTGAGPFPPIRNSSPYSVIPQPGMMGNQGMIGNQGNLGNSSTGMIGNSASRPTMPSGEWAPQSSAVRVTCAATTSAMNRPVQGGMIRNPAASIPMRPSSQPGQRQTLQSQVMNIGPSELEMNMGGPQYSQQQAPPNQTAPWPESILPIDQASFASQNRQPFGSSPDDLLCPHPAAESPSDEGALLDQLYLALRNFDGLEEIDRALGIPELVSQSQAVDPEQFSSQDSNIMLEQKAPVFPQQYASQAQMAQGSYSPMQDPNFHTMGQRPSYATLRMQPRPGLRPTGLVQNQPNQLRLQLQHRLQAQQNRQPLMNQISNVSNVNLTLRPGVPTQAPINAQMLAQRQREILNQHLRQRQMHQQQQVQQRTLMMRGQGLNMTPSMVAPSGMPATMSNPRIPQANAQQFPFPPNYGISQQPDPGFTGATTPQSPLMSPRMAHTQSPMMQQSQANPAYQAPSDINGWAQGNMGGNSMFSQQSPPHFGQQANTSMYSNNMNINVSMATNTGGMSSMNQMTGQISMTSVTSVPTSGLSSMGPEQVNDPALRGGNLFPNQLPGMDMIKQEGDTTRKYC
Procedure Summary: SRC2 coactivator transcriptional activity inhibitors, confirmation, cell-based, luminescence, HEK293, triplicate (AID 652008);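 further: 0% = DMSO-treated cells and 100% = Gossypol at 36 µM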
Condition Label: HEK293 GAL4-SRC2 luciferase reporter, at 8.9 µM, hits give high values
inhibition values, listed per item
Supply the numeric figure in %, leaving out any unit text.

Query :: Answer with inhibition of `Nc1nc(-c2ccccc2)c(N=Nc2cccnc2)s1` measured for Nuclear receptor coactivator 2 (Homo sapiens) (UniProt Q15596).
Result :: 11.2

Query :: Report measured inhibition on Nuclear receptor coactivator 2 (Homo sapiens) (UniProt Q15596); entry: `CC(C)(C)n1nc(Cc2cccc3ccccc23)c2c(N)ncnc21`
Result :: 29.4

Query :: Find the measured inhibition of `CCCc1ncc(CN2CCC(C(=O)Nc3cccc(-c4cscn4)c3)CC2)cn1` with Nuclear receptor coactivator 2 (Homo sapiens) (UniProt Q15596) as test system.
Result :: 15.5

From here, focus on the item given below.
Query :: State inhibition (Nuclear receptor coactivator 2 (Homo sapiens) (UniProt Q15596)) of `Cn1nc(-c2ccccn2)nc2c(=O)n(C)c(=O)nc1-2` .
Result :: 70.7
